- study.system: T1, human MSLN-R3 protein (human, UniProt Q13421 487-598)
- T1 construct: also called hMSLN-R3
- T1 sequence (Q13421 495-606, form in doubt): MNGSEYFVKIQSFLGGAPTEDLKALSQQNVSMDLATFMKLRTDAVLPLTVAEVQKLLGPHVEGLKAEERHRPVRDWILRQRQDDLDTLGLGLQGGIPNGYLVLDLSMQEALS
- method: ELISA on coated antigen, antibody 0.0001 nM
endpoint: OD450 (OD450)
Only the number, expressed in OD450, is required.

>>> recorded_measurement("F7.33.24-H2 (scFv, not shown: small tags and cut ends, also called S009-F7.33.24 humanized antibody VH1 + VL2) scFv: EVQLVQSGAEVKKPGASVKVSCKASGYTFTSYWMHWVRQAPGQRLEWMGNVNPSNGGSNYNEKFKNRVTITVDKSASTAYMELSSLRSEDTAVYYCAPHYIGSRPGFAYWGQGTLVTVSSGGGGSGGGGSGGGGSDIVMTQTPLSLSVTPGQPASISCKASQNVGTNIAWYLQKPGQSPQALIYSASYRYSGVPDRFSGSGSGTDFTLKISRVEAEDVGVYYCQQYNSYPLTFGGGTKVEIK")
0.04

The recorded OD450 for entry Tab111 (scFv, not shown: small tags and cut ends, also called YP218 VL-(G4S)3-VH-his antibody; positive control) scFv: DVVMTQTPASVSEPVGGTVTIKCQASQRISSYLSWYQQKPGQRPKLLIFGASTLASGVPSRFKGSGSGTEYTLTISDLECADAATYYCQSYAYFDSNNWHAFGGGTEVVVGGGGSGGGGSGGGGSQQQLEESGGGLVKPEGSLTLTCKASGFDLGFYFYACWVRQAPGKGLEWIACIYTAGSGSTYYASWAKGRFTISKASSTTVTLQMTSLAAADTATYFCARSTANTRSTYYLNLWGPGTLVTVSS equals 0.05

The recorded OD450 for entry F7.33.24-H8 (scFv, not shown: small tags and cut ends, also called S009-F7.33.24 humanized antibody VH2 + VL2) scFv: EVQLVQSGAEVKKPGASVKVSCKASGYTFTSYWMHWVRQAPGQGLEWMGNVNPSNGGSNYNEKFKNRVTITVDKSASTAYMELSSLRSEDTAVYYCAPHYIGSRPGFAYWGQGTLVTVSSGGGGSGGGGSGGGGSDIVMTQTPLSLSVTPGQPASISCKASQNVGTNIAWYLQKPGQSPQALIYSASYRYSGVPDRFSGSGSGTDFTLKISRVEAEDVGVYYCQQYNSYPLTFGGGTKVEIK equals 0.05

The values you see were collected from patent US20250250357A1.
